# Tested on: K562 SF3B1 K700E vs K562 SF3B1 WT
# PROCEDURE TEXT: surviving fraction ratio K562 SF3B1 K700E / K562 SF3B1 WT (each relative to DMSO); higher = less selective killing of SF3B1 K700E cells
# CONDITION CONTEXT: 5nM; 5 days
OUTCOME MEASURE: surviving fraction ratio K562 SF3B1 K700E / K562 SF3B1 WT
Answer field: number only, no words.

Sample CC(=O)c1c(C)c2cnc(Nc3ccc(N4CCNCC4)cn3)nc2n(C2CCCC2)c1=O , system: K562 SF3B1 K700E vs K562 SF3B1 WT. Its surviving fraction ratio K562 SF3B1 K700E / K562 SF3B1 WT is 0.743

Sample CN(Cc1cnc2nc(N)nc(N)c2n1)c1ccc(C(=O)N[C@@H](CCC(=O)O)C(=O)O)cc1 [methotrexate] , system: K562 SF3B1 K700E vs K562 SF3B1 WT. Its surviving fraction ratio K562 SF3B1 K700E / K562 SF3B1 WT is 0.971

Sample CO[C@H]1C[C@@H]2CC[C@@H](C)[C@@](O)(O2)C(=O)C(=O)N2CCCC[C@H]2C(=O)O[C@H]([C@H](C)C[C@@H]2CC[C@@H](OCCO)[C@H](OC)C2)CC(=O)[C@H](C)/C=C(\C)[C@@H](O)[C@@H](OC)C(=O)[C@H](C)C[C@H](C)/C=C/C=C/C=C/1C [everolimus] , system: K562 SF3B1 K700E vs K562 SF3B1 WT. Its surviving fraction ratio K562 SF3B1 K700E / K562 SF3B1 WT is 0.712

Sample CNC(=O)c1ccc(N2C(=S)N(c3ccc(C#N)c(C(F)(F)F)c3)C(=O)C2(C)C)cc1F , system: K562 SF3B1 K700E vs K562 SF3B1 WT. Its surviving fraction ratio K562 SF3B1 K700E / K562 SF3B1 WT is 0.864

Sample C=CC(=O)Nc1cc2c(Nc3ccc(F)c(Cl)c3)ncnc2cc1OCCCN1CCOCC1 [canertinib] , system: K562 SF3B1 K700E vs K562 SF3B1 WT. Its surviving fraction ratio K562 SF3B1 K700E / K562 SF3B1 WT is 0.921

Sample Nc1ncn([C@H]2C[C@H](O)[C@@H](CO)O2)c(=O)n1 [decitabine] , system: K562 SF3B1 K700E vs K562 SF3B1 WT. Its surviving fraction ratio K562 SF3B1 K700E / K562 SF3B1 WT is 0.773

Sample C[C@H](CN(C)C)Oc1nc(Nc2cc3cccc(Cl)c3cn2)cnc1C#N , system: K562 SF3B1 K700E vs K562 SF3B1 WT. Its surviving fraction ratio K562 SF3B1 K700E / K562 SF3B1 WT is 0.786
